Tested on: circulating lymphocytes
Experiment description: Blood Lymphocyte Reduction (BLR) assay in rodent
Assay type: in vivo
Condition summary: 4 Hours; Lewis rats dosed orally; vs vehicle group
As shown below, each of these compounds has a reported Lymp. Red. value.
Attribute measured: Lymp. Red.

CCCCSc1nc2c(s1)-c1ccc([C@H]3CC[C@](N)(CO)C3)cc1CC2 | 82%
CCCCCCOc1nc2c(s1)-c1ccc([C@H]3CC[C@](N)(CO)C3)cc1CC2 | 66%
CCCCc1nc2c(s1)-c1ccc([C@H]3CC[C@](N)(CO)C3)cc1CC2 | 59%
CCCCCCOc1nc2ccc3cc([C@H]4CC[C@](N)(CO)C4)ccc3c2s1 | 73%
CCCCCCCc1nc2c(s1)-c1ccc([C@H]3CC[C@](N)(CO)C3)cc1CC2 | 40%
CCCCCOc1nc2ccc3cc([C@H]4CC[C@](N)(CO)C4)ccc3c2s1 | 80%
CCCCN(C)c1nc2c(s1)-c1ccc([C@H]3CC[C@](N)(CO)C3)cc1CC2 | 30%
CCCCNc1nc2c(s1)-c1ccc([C@H]3CC[C@](N)(CO)C3)cc1CC2 | 37%

---

Experiment description: Parent and phosphate concentrations in the BLR assay
Condition summary: rat, in vivo, po, Lewis rats dosed orally
Response key: YES means concentration at 4 h >= 70 nM; NO means concentration at 4 h < 70 nM.

CCCCCOc1nc2ccc3cc([C@H]4CC[C@](N)(CO)C4)ccc3c2s1 | NO
COc1cccc(-c2nc3c(s2)-c2ccc([C@H]4CC[C@](N)(CO)C4)cc2CC3)c1 | YES
CCCCOc1nc2c(s1)-c1ccc([C@H]3CC[C@](N)(CO)C3)cc1CC2 | NO
CCCCCOc1nc2c(s1)-c1ccc([C@H]3CC[C@](N)(CO)C3)cc1CC2 | YES
CCCCCCOc1nc2ccc3cc([C@H]4CC[C@](N)(CO)C4)ccc3c2s1 | NO
CCCCOc1nc2ccc3cc([C@H]4CC[C@](N)(CO)C4)ccc3c2s1 | NO
CCCCCCCc1nc2c(s1)-c1ccc([C@H]3CC[C@](N)(CO)C3)cc1CC2 | NO
CCCCSc1nc2ccc3cc([C@H]4CC[C@](N)(CO)C4)ccc3c2s1 | NO

---

Items are presented alongside their recorded log10 concentration at 4 h.
Experiment description: Parent and phosphate concentrations in the BLR assay
Condition summary: rat, in vivo, po, Lewis rats dosed orally
Attribute measured: log10 concentration at 4 h (log10 of the value in nM)

CCCCN(C)c1nc2c(s1)-c1ccc([C@H]3CC[C@](N)(CO)C3)cc1CC2 | 2.05
CCCCSc1nc2c(s1)-c1ccc([C@H]3CC[C@](N)(CO)C3)cc1CC2 | 0.95
CCCCNc1nc2c(s1)-c1ccc([C@H]3CC[C@](N)(CO)C3)cc1CC2 | 1.52
CCCCCSc1nc2c(s1)-c1ccc([C@H]3CC[C@](N)(CO)C3)cc1CC2 | 1.94
CCCCCCc1nc2c(s1)-c1ccc([C@H]3CC[C@](N)(CO)C3)cc1CC2 | 1.89
CCCCc1nc2c(s1)-c1ccc([C@H]3CC[C@](N)(CO)C3)cc1CC2 | 2.04
CCCc1nc2c(s1)-c1ccc([C@H]3CC[C@](N)(CO)C3)cc1CC2 | 2.03
CCCCOCCOc1nc2c(s1)-c1ccc([C@H]3CC[C@](N)(CO)C3)cc1CC2 | 0.00
Cc1ccc(-c2nc3c(s2)-c2ccc([C@H]4CC[C@](N)(CO)C4)cc2CC3)cc1 | 1.68
CCCCCCOc1nc2c(s1)-c1ccc([C@H]3CC[C@](N)(CO)C3)cc1CC2 | 1.86

Cited source: patent US10633354B2
